Tested on: MS2 coat protein
PROTOCOL TEXT: apparent KD of MS2 coat protein, switch ON state; designed switch direction (-1 OFF switch, 1 ON switch): -1; higher = weaker reporter binding
CONDITION CONTEXT: FMN input: 0 or 200 uM; Eterna round: R93 (includes R88 designs)
ASSAY METRIC: apparent KD of MS2 coat protein (µM)

SEQUENCE: AAAACACAUGAGGAUCACCCAUGUGAGGAUAUGCUAUGGAAAUAAAAAAUAAAACAUAGCAGAAGGCGCAGGAA [Mat - Exclusion 1 - Eli mod - D47]
MEASUREMENT UNIT: µM
MEASURED VALUE: 0.0252
--
SEQUENCE: CCACAGGUAGGAUAUGCUGGGUGGGAUAAAUAAUUCCUGUGACAUGAGGAUCACCCAUGUAGAAGGACCAAAAG [Rixela]
MEASUREMENT UNIT: µM
MEASURED VALUE: 0.0229
--
SEQUENCE: AAGUUACAUGAGGAUCACCCAUGUGAGGAUAUGUGUAUCCCUAAAAAAGUGUGGGACCACAGAAGGUACUUGGA [Mod 2 of Atanri by ViennaUCT, Round 1]
MEASUREMENT UNIT: µM
MEASURED VALUE: 0.0429

* * *

Test system: MS2 coat protein
PROTOCOL TEXT: apparent KD of MS2 coat protein; designed switch direction (-1 OFF switch, 1 ON switch): 1; higher = weaker reporter binding
CONDITION CONTEXT: input ligand: microRNA oligo, concentration not stated
Overview of recorded apparent KD of MS2 coat protein for various sequences

SEQUENCE: AUUUUUAAUGCAGGAUAUGAUUAACAUGAGGAUCACCCAUGUGGUGUUGUGAGUAAGGAGAGUGAUCAGAAGGGCAUCUUUUUU [JMF's solution 81] (Eterna round: R96, puzzle: Same State NG 2)
TARGET SYSTEM: MS2 coat protein
apparent KD of MS2 coat protein (nM): 529

SEQUENCE: CCCUGAGGUAGCCCACAGGGACAUGAGGAUCACCCAUGUACACAGGAUAUCGAGGGCUCCGCCUUCGAGAAGGGUGAUCAAACU [Geditedi] (Eterna round: R96, puzzle: Same State NG 3)
TARGET SYSTEM: MS2 coat protein
apparent KD of MS2 coat protein (nM): 18.2

SEQUENCE: UAUAAACAUGAGGAUCACCCAUGUAAUAAUAUGGGAGGAUAUCAGAUUUAAUUUAAUUUAUGAGAAGGCCUAAUAU [Mat - Same State 1 - Mod of Eli - D66] (Eterna round: R96, puzzle: Same State 1)
TARGET SYSTEM: MS2 coat protein
apparent KD of MS2 coat protein (nM): 427

SEQUENCE: ACAUGAGACUCAGGAUAUAUUGUACCUACAUGUGACAUGAGGAUCACCCAUGUGGUAAGUAUGACAUAGAAGGGAGAGAUAUGU [Equivalance 86 - Jieux - Same State NG 2] (Eterna round: R96, puzzle: Same State NG 2)
TARGET SYSTEM: MS2 coat protein
apparent KD of MS2 coat protein (nM): 40.5

SEQUENCE: GAGAGAGGGCGAGGAUAUUCGGUGAUAAUGAUGGAAGAAGGCGCAGACAUGAGGAUCACCCAUGUGGGAAUAAUCCAGAGAGAG [Parity 14 - Jieux - Same State NG 1] (Eterna round: R96, puzzle: Same State NG 1)
TARGET SYSTEM: MS2 coat protein
apparent KD of MS2 coat protein (nM): 101

SEQUENCE: UGUUGUUAAUUAGGAUAUGGGCACAUGAGGAUCACCCAUGUAUUGUCGAUGCUAUGUGGACACGUUUAGAAGGAAUGGCUAACA [SameState NG2 #91] (Eterna round: R96, puzzle: Same State NG 2)
TARGET SYSTEM: MS2 coat protein
apparent KD of MS2 coat protein (nM): 55.4

SEQUENCE: GGAGCCAAGGCAGGAUAUUCAUAUUAAAACAUGAGGAUCACCCAUGUAAAGGCCAGAAGGCCUUGGGAGAAGGGCCAUGGCUCG [Xeonanis - 13 mod1] (Eterna round: R96, puzzle: Same State NG 2)
TARGET SYSTEM: MS2 coat protein
apparent KD of MS2 coat protein (nM): 37.6

SEQUENCE: AAAAUGGUAUGUUACAUGAGGAUCACCCAUGUACCGUAAUCUGAGGAUAUGGUGAUGUAGAAGAAUCAGAAGGCAGACAUUUAA [AK SSNG3-V2-24.2] (Eterna round: R96, puzzle: Same State NG 3)
TARGET SYSTEM: MS2 coat protein
apparent KD of MS2 coat protein (nM): 26.7

SEQUENCE: AAAAGACAAAGAAAACAUGAGGAUCACCCAUGUGGCGUGACACAGGAUAUCCACGCUACAUUGCAGGAGAAGGGUGACAUGCAC [Ensora] (Eterna round: R96, puzzle: Same State NG 3)
TARGET SYSTEM: MS2 coat protein
apparent KD of MS2 coat protein (nM): 273

SEQUENCE: AAAAGAAACAUGUACCUGAGUACAUGAAAACAUGAGGAUCACCCAUGUAAUAAGUGGGUGUUUUGUCUUUGUCUUAU [JL pocket 34, mod 5] (Eterna round: R96, puzzle: Sensor for hsa-mir-208a)
TARGET SYSTEM: MS2 coat protein
apparent KD of MS2 coat protein (nM): 119

SEQUENCE: GCUCGAUGAGCUGUCUACAUGAGGAUCACCCAUGUAGAUGGGCAGGAUAUUUACGUGCUUUAUGUAGAGAAGGGCCCAUCGAGC [SameState NG3 #78] (Eterna round: R96, puzzle: Same State NG 3)
TARGET SYSTEM: MS2 coat protein
apparent KD of MS2 coat protein (nM): 123

SEQUENCE: UGAAUGAUGUUAGGAUAUACAUGAGGAAUCCUCGUAGAAGGAACAUGACAUGAGGAUCACCCAUGUAGCGCUCCGUAGAGCGCA [JL SSNG1 1.19] (Eterna round: R96, puzzle: Same State NG 1)
TARGET SYSTEM: MS2 coat protein
apparent KD of MS2 coat protein (nM): 30.4

SEQUENCE: ACAUGAGAGAUAGGAUAUUGUGUACCUACAUGUGACAUGAGGAUCACCCAUGUGGUAAGUAUGAGCAAGAAGGAUCAGAUAUGU [Equivalance 51 - Jieux - Same State NG 2] (Eterna round: R96, puzzle: Same State NG 2)
TARGET SYSTEM: MS2 coat protein
apparent KD of MS2 coat protein (nM): 35.9

SEQUENCE: UUUACAUUACGAGGAUAUCAUUUAUUUCAUGUUUGAGAAGGCGUUUUUUUUAUUACCUUACAUGAGGAUCACCCAUGUUUCUUU [JR_SSNG1_Sub043] (Eterna round: R96, puzzle: Same State NG 1)
TARGET SYSTEM: MS2 coat protein
apparent KD of MS2 coat protein (nM): 26.2

SEQUENCE: GUGCUCGUGUGAGGAUAUGUUGCCGGGUCGGCUGCAGAAGGUACUAUUAUACAUGAGGAUCACCCAUGUCGCUUUUCUCCGGUG [salish99_SSNG1_r04_920] (Eterna round: R96, puzzle: Same State NG 1)
TARGET SYSTEM: MS2 coat protein
apparent KD of MS2 coat protein (nM): 58.8

SEQUENCE: GGUGGGUUACUACCAACACAUGAGGAUCACCCAUGUUUUGGGAAGGAUAUGGUACCUAUUUGGUACCAGAAGGUCCGGUUGGUG [salish99_SSNG3_r04_704] (Eterna round: R96, puzzle: Same State NG 3)
TARGET SYSTEM: MS2 coat protein
apparent KD of MS2 coat protein (nM): 100

SEQUENCE: AUUGCUAGCGCAGGAUAUGAUGCGAAAAUUGCGUCAGAAGGGUGUACUCUCUCAUUGCGGGAGGACAUGAGGAUCACCCAUGUC [SameState NG1 #83] (Eterna round: R96, puzzle: Same State NG 1)
TARGET SYSTEM: MS2 coat protein
apparent KD of MS2 coat protein (nM): 71.5

* * *

Test system: MS2 coat protein
PROTOCOL TEXT: apparent KD of MS2 coat protein, switch OFF state (with FMN for OFF switches, without FMN for ON switches); designed switch direction (-1 OFF switch, 1 ON switch): 1; higher = weaker reporter binding
CONDITION CONTEXT: FMN input: 0 or 200 uM; Eterna round: R93 (includes R88 designs)

SEQUENCE: AACAAUCUAUCUGAGGAUAUAUGUCGAAAGACAUGAGGAUCACCCAUGUGAAAACAUGAAAAAACAUAGAAGGCAGAUAGAUUGA [SS2: 1136]
MEASUREMENT UNIT: nM
apparent KD of MS2 coat protein: 54.3

SEQUENCE: GCCUAACAUGAGGAUCACCCAUGUAGUGGGUUGUUAGGAUAUGGACCGCAAAACACGGUACCAGAAGGAAUAGAAA [Tiquleraat]
MEASUREMENT UNIT: nM
apparent KD of MS2 coat protein: 720

SEQUENCE: GUGGUGCAGGUACAGGAUAUGUUGCUCGUAACAUGAGGAUCACCCAUGUACCUAUGAGAUUAAAUGCAGAAGGGUGCACACCACG [Edtiditele]
MEASUREMENT UNIT: nM
apparent KD of MS2 coat protein: 208

SEQUENCE: UCAGAACCGACAAAGGAUAUAGCGGGUGAGACAUGAGGAUCACCCAUGUAUGCAGAACUCAUCCUCUAGAAGGUUGAGACGGAUA [Maedanon]
MEASUREMENT UNIT: nM
apparent KD of MS2 coat protein: 93.6

SEQUENCE: UCAAAACAUGAGGAUCACCCAUGUAGCCUAAAGCGAGGAUAUGGGUUUCUUUAAAGAGUACCAGAAGGCGCCAAAA [Enenala]
MEASUREMENT UNIT: nM
apparent KD of MS2 coat protein: 91.1

SEQUENCE: AAUACACAUGGUCAGGAUAUCGCAGCUAGGACAUGAGGAUCACCCAUGUCGCACGUAACCGUAACCGAGAAGGGACAGGGUGAUC [JR_SS002_Sub410]
MEASUREMENT UNIT: nM
apparent KD of MS2 coat protein: 34

SEQUENCE: CGUAAACAUGAGGAUCACCCAUGUCAAUAUGAUCAAGGAUAUGGGUUCCGAAGUGGAACACCAGAAGGUGAAUAGU [Inrea]
MEASUREMENT UNIT: nM
apparent KD of MS2 coat protein: 580

SEQUENCE: AACAAUCUAUCUGAGGAUAUCAUGUCAAAGACAUGAGGAUCACCCAUGUGCAGGAAAACUGCUCAUGAGAAGGCAGAUAGAUUGA [SS2: 1110]
MEASUREMENT UNIT: nM
apparent KD of MS2 coat protein: 167
